molecular target: human MOR (Homo sapiens); construct: expressed in transfected cells; test: biochemical; assay type: binding; conditions: [3H]DAMGO, human MOR; ± S.E.M., three independent experiments; read-out: MOR Ki
Sequence (P35372 whole entry): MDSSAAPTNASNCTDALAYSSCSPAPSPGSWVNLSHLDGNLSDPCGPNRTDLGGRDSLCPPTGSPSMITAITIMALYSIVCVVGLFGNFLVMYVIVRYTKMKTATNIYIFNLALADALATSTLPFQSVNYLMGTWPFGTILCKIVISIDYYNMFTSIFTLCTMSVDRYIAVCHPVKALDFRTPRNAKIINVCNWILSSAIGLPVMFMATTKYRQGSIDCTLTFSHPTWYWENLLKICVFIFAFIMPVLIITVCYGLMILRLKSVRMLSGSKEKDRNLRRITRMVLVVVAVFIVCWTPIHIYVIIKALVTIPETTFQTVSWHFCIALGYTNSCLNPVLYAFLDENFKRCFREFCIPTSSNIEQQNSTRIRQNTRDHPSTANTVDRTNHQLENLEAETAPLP
Where a SMILES comes first, the peptide text is derived from it. [ ]: non-standard residue; d: D form. The star is where a group is joined. dPhe(4-NO2) = N[C@H](Cc1ccc([N+](=O)[O-])cc1)C(=O)O; dPhe(3-Me) = Cc1cccc(C[C@@H](N)C(=O)O)c1; dPhe(3-F) = N[C@H](Cc1cccc(F)c1)C(=O)O; dPhe(2-F) = N[C@H](Cc1ccccc1F)C(=O)O; For = O=C*
measuredAttribute: pKi
// pKi: -log10(molar conc.)

// pKi lookup, key: Cc1cccc(C[C@H]2NC(=O)[C@H](Cc3ccccc3)NC(=O)[C@H]3CCCN3C(=O)[C@H](Cc3ccccc3)NC2=O)c1 [Analog 14, [D-Phe(m-Me)^4]CJ-15,208] (cyclo(F[dP]F[dPhe(3-Me)]))
6.89

// pKi lookup, key: O=C1N[C@H](Cc2ccccc2)C(=O)N[C@@H](Cc2ccccc2)C(=O)N2CCC[C@@H]2C(=O)N[C@H]1Cc1ccccc1 [Analog 4, cyclo[Phe-D-Pro-Phe-D-Phe]] (cyclo(F[dP]F[dF]))
6.57

// pKi lookup, key: O=Cn1cc(C[C@H]2NC(=O)[C@H](Cc3ccccc3)NC(=O)[C@H]3CCCN3C(=O)[C@H](Cc3ccccc3)NC2=O)c2ccccc21 [Analog 3, [D-Trp(formamide)]CJ-15,208] (cyclo(F[dP]F[dW](For)))
7.05

// pKi lookup, key: O=C1N[C@H](Cc2ccccc2F)C(=O)N[C@@H](Cc2ccccc2)C(=O)N2CCC[C@@H]2C(=O)N[C@H]1Cc1ccccc1 [Analog 5] (cyclo(F[dP]F[dPhe(2-F)]))
6.46

// pKi lookup, key: O=C1N[C@H](Cc2cc(F)c(F)cc2F)C(=O)N[C@@H](Cc2ccccc2)C(=O)N2CCC[C@@H]2C(=O)N[C@H]1Cc1ccccc1 [Analog 10]
6.57

// pKi lookup, key: O=C1N[C@H](Cc2cccc(F)c2)C(=O)N[C@@H](Cc2ccccc2)C(=O)N2CCC[C@@H]2C(=O)N[C@H]1Cc1ccccc1 [Analog 6, [D-Phe(m-F)^4]CJ-15,208] (cyclo(F[dP]F[dPhe(3-F)]))
6.80

// pKi lookup, key: O=C1N[C@H](Cc2ccc([N+](=O)[O-])cc2)C(=O)N[C@@H](Cc2ccccc2)C(=O)N2CCC[C@@H]2C(=O)N[C@H]1Cc1ccccc1 [Analog 16] (cyclo(F[dP]F[dPhe(4-NO2)]))
7.21
